System: CAKI-1 renal
Assay: NCI-60 one-dose screen, 48 h
Conditions: 10 µM unless noted
The panel holds about 83,000 compounds, 20% with a hit somewhere; the sample as a whole holds those more often. Active and inactive are the calls of the source. Rule for the calls: active = growth percent below 10; inactive = the rest.
Possible outcomes: active, inactive

[
  {
    "Compound": "C=CCN(/C=C/CN(CC=C)CC=C)CC=C",
    "Group": "inactive"
  },
  {
    "Compound": "N#Cc1c(-c2ccccc2)cc(-c2ccccc2)n(CC(=O)O)c1=O",
    "Group": "inactive"
  },
  {
    "Compound": "CCCCCCCCCCNCCSS(=O)(=O)O",
    "Group": "inactive"
  },
  {
    "Compound": "CCc1nn2c(-c3ccc(Cl)cc3C)c(-c3cc(OC)c(OC)c(OC)c3)nc2s1",
    "Group": "inactive"
  },
  {
    "Compound": "O=C1Nc2ccc(C(=O)O)c(O)c2C1=O",
    "Group": "inactive"
  },
  {
    "Compound": "COc1ccc(/C=C2\\CCc3ccccc3C2=O)cc1",
    "Group": "inactive"
  },
  {
    "Compound": "COC(=O)[C@H](Cc1cn(C)cn1)NC(=O)[C@H](C)NC(=O)Nc1cc(C(F)(F)F)cc(C(F)(F)F)c1",
    "Group": "inactive"
  },
  {
    "Compound": "Nc1nc(Nc2ccccc2SSc2ccccc2Nc2nc(N)nc(-c3ccc(I)cc3)n2)nc(-c2ccc(I)cc2)n1",
    "Group": "inactive"
  },
  {
    "Compound": "Cc1nn(-c2nc3ccccc3s2)c(C)c1Oc1ccccc1O",
    "Group": "inactive"
  },
  {
    "Compound": "COCCCNS(=O)(=O)c1ncnc2nc[nH]c12",
    "Group": "inactive"
  },
  {
    "Compound": "O[N+]1=CC=CCC1=S.On1ccccc1=S.[Zn]",
    "Group": "active"
  },
  {
    "Compound": "NC(=NCCCCCCN=C(N)/N=C(\\N)Nc1ccc(Cl)cc1)/N=C(\\N)Nc1ccc(Cl)cc1",
    "Group": "inactive"
  },
  {
    "Compound": "[N-]=[N+]=NCc1ncc(-c2ccc(C(F)(F)F)cc2)c(NC2CCCCCC2)n1",
    "Group": "inactive"
  },
  {
    "Compound": "C/C=C(/C(=C/C)c1ccc(O)cc1)c1ccc(O)cc1",
    "Group": "inactive"
  },
  {
    "Compound": "COc1cccc(C2=NN(C(C)=O)C(c3cc(OC)c(OC)c(OC)c3)C2)c1 (stereo unspecified)",
    "Group": "inactive"
  },
  {
    "Compound": "CC(=O)[C@H]1CC[C@H]2[C@@H]3C[C@H](C)C4=CC(=O)CC[C@]4(C)[C@H]3C(=O)C[C@]12C",
    "Group": "inactive"
  },
  {
    "Compound": "COc1ccc([N+](=O)[O-])c(S(=O)(=O)c2ccc(Cl)cc2)n1",
    "Group": "inactive"
  },
  {
    "Compound": "COc1ccc(-c2nc3sc4c(c3c(=O)[nH]2)CCCCCC4)cc1",
    "Group": "inactive"
  },
  {
    "Compound": "CCCCCc1c(C)[nH]c(/C=C2\\N=C(c3ccc[nH]3)C=C2Oc2ccccc2)c1C",
    "Group": "active"
  },
  {
    "Compound": "CCOC1Oc2ccccc2C(=O)/C1=N/c1nccs1 (stereo unspecified)",
    "Group": "inactive"
  },
  {
    "Compound": "CC1=C([Se]CC(OC(=O)[C@@H](CSSC(C)(C)C)NC(=O)C(C)(C)C)C(=O)NCCCCCC(=O)OCc2ccccc2)C(=O)c2ccccc2C1=O (stereo partly specified)",
    "Group": "active"
  }
]
